Quick list: growth inhibition per entry.
Test: NCI Yeast Anticancer Drug Screen. Data for the sgs1 mgt1 strain (AID 161);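 further: 0% = growth of cultures given vehicle only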
Details: S. cerevisiae sgs1 mgt1 strain, at 50.0 µM, hits give high values
About 79,000 compounds went through this panel and 15% of them were active in at least one assay; those are over-represented in the sample as a whole.
API: value field is a number in %; no unit string.

Worked set:
[
  {
    "Molecule": "CC1(C#N)N(C(=O)c2ccccc2)c2ccccc2N1C(=O)c1ccccc1",
    "Result unit": "%",
    "growth inhibition": 46.2
  },
  {
    "Molecule": "OC(CN1CCc2ccccc2C1)c1ccccc1 (centres undefined)",
    "Result unit": "%",
    "growth inhibition": 49
  },
  {
    "Molecule": "COc1c2ccoc2c(S(=O)(=O)Nc2ccc(Cl)cc2)c2oc(C)cc(=O)c12",
    "Result unit": "%",
    "growth inhibition": -13.9
  },
  {
    "Molecule": "CC1=C(C(=O)CC(=O)C(=O)Nc2ccc(C)cc2C)Sc2ccccc2N1",
    "Result unit": "%",
    "growth inhibition": -33
  },
  {
    "Molecule": "COc1cc(C(c2ccc3c(c2)OCO3)N2C(=O)CCC2C(=O)O)cc(OC)c1OC (centres undefined)",
    "Result unit": "%",
    "growth inhibition": -18.8
  }
]

Can you look up the measured growth inhibition of CC(=O)Nc1cc2cc(NS(=O)(=O)c3cc(C(F)(F)F)cc(C(F)(F)F)c3)ccc2oc1=O for me?
-4.9

Can you look up the measured growth inhibition of C1CCC(C2CCCC[N-]2)[N-]C1.C1CCC(C2CCCC[N-]2)[N-]C1.[Cl][Ru][Cl] (centres undefined) for me?
29.1

Can you look up the measured growth inhibition of COC(=O)C(NC(=O)C(CC(=O)OC(C)(C)C)NC(=O)OC(C)(C)C)C(O)c1ccccc1 (centres undefined) for me?
-22.4

Can you look up the measured growth inhibition of COc1cc(C(=O)NC(CCN)(c2ccccc2)c2ccccc2)cc(OC)c1OC for me?
14.4

Can you look up the measured growth inhibition of COc1ccc2cc(C(=O)O)ccc2c1OC for me?
27

###

Assay: NCI Yeast Anticancer Drug Screen. Data for the mlh1 rad18 strain (AID 175)
Settings: S. cerevisiae mlh1 rad18 strain growth inhibition; at 50.0 µM; hits give high values
This is part of a sample that, as a whole, favours compounds with a hit. Of some 79,000 tested, about 15% had one in any assay.
Measured endpoint: growth inhibition (%)
API: value field is a number in %; no unit string.

Worked set:
[
  {
    "Compound": "COc1ccccc1NC(=O)CC(=O)n1nc(-c2ccccc2)c(N=Nc2ccccc2[N+](=O)[O-])c1-c1ccccc1",
    "Result unit": "%",
    "growth inhibition": 15.5
  },
  {
    "Compound": "CC(C)NC(=O)c1ccc(CON)cc1",
    "Result unit": "%",
    "growth inhibition": 9.8
  }
]

Let us examine a further case.
Can you look up the measured growth inhibition of O=C(NCCc1c[nH]c2ccccc12)C(F)(F)F for me?
0.3

###

Test: NCI Yeast Anticancer Drug Screen. Data for the rad50 strain (AID 155);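 further: 0% = growth of vehicle-only cultures of the same strain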
Conditions: S. cerevisiae rad50 strain growth inhibition; at 50.0 µM
The panel holds about 79,000 compounds, 15% with a hit somewhere; the sample as a whole holds those more often. Activity calls are given as the source filed them. Rule as the data show it: active = growth inhibition above about 70%; inactive = the rest.
Returns: one label drawn from label 1 (active), label 0 (inactive)

Worked cases, answers included:
[
  {
    "Compound": "N=c1c(-c2ccccc2)cc2ccccc2n1O",
    "Classification": "label 0"
  },
  {
    "Compound": "CC(O)CN1CNC(=S)NC1 (stereo not given)",
    "Classification": "label 0"
  },
  {
    "Compound": "CC(CC#N)NC(=O)C1CCC(N)=N1 (stereo not given)",
    "Classification": "label 0"
  }
]

For CCOC(=O)NOC1CCCCO1 (stereo not given) , what call appears in the results of this test?
label 0

For COc1ccc(NC(=O)N(C)C)cc1OC , what call appears in the results of this test?
label 0

For CCOC(=O)NC(NC(=O)OCC)c1ccc(Cl)cc1Cl , what call appears in the results of this test?
label 0

###

Assay: NCI Yeast Anticancer Drug Screen. Data for the sgs1 mgt1 strain (AID 161);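 further: 0% = growth of cultures given vehicle only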
Conditions: S. cerevisiae sgs1 mgt1 strain, at 50.0 µM
Experimental: Growth inhibition of yeast strains with defined genetic alterations is measured as a screen for potential anti-cancer activity. Selected strains with alterations in DNA damage repair or cell cycle control were exposed to compounds and growth inhibition was measured relative to vehicle treated controls. The strain used in this assay is sgs1 mgt1
About 79,000 compounds went through this panel and 15% of them were active in at least one assay; those are over-represented in the sample as a whole. Active and inactive are the calls of the source. Rule as the data show it: active = growth inhibition above about 70%; inactive = the rest.
Returns: one label drawn from active, inactive

Worked cases, answers included:
[
  {
    "Compound": "CC(=O)NC(N)=O",
    "Classification": "inactive"
  },
  {
    "Compound": "CCCCCCCCCC(=O)N/N=C/c1cccnc1",
    "Classification": "active"
  },
  {
    "Compound": "CCCCNc1ccccc1",
    "Classification": "inactive"
  },
  {
    "Compound": "Nc1cccc2c1C(=O)c1cccc(N)c1C2=O",
    "Classification": "inactive"
  },
  {
    "Compound": "NC(=O)C(=O)N/N=C1\\C(=O)N(c2ccc(Cl)cc2Cl)C(=O)C1C(=O)Nc1ccc(Cl)cc1Cl (configuration not stated)",
    "Classification": "inactive"
  }
]

For NCCCNCCCCNC(=O)C(O)NC(=O)CC(O)CCCCN=C(N)N (configuration not stated) , what call appears in the results of this test?
inactive

For Cc1ccc(C(O)/C(=N/N)c2nc3ccc([N+](=O)[O-])cc3[nH]c2=O)cc1 (configuration not stated) , what call appears in the results of this test?
inactive

For CC1=CCCCC1O (configuration not stated) , what call appears in the results of this test?
inactive

For O=[N+]([O-])C(/C=N/Nc1ccccc1)/C=N/Nc1ccccc1 , what call appears in the results of this test?
inactive

For COC(=O)CCc1cc(=O)oc2c3c(cc(OC)c12)OC1OC(=O)CC31 (configuration not stated) , what call appears in the results of this test?
inactive

For O=c1c2cc([N+](=O)[O-])ccc2[nH]n1Cc1ccccc1Cl , what call appears in the results of this test?
inactive

For O=C(Nc1ccc2c(c1)Cc1ccccc1-2)C(Cl)Cl , what call appears in the results of this test?
inactive

###

Experiment: NCI Yeast Anticancer Drug Screen. Data for the rad50 strain (AID 155);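 further: 0% = growth of vehicle-only cultures of the same strain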
Settings: S. cerevisiae rad50 strain growth inhibition; at 50.0 µM; hits give high values
About 79,000 compounds went through this panel and 15% of them were active in at least one assay; those are over-represented in the sample as a whole.
Measured endpoint: growth inhibition (%)
API: value field is a number in %; no unit string.

Worked set:
[
  {
    "Molecule": "COc1cc2c(SCCN(C)C)nc3ccccc3c2c2ccccc12",
    "growth inhibition [%]": 89.9
  },
  {
    "Molecule": "CC(=O)OCC1OC(N=[N+]=[N-])C(OC(C)=O)C(OC(C)=O)C1OC1OC(COC(C)=O)C(OC(C)=O)C(OC(C)=O)C1OC(C)=O (stereo not drawn)",
    "growth inhibition [%]": -19.1
  },
  {
    "Molecule": "NC(=S)Nc1ccccc1Cl",
    "growth inhibition [%]": -14.3
  },
  {
    "Molecule": "C=CCCCCCCCCC(=O)Nc1cc(Cl)ccc1C",
    "growth inhibition [%]": -0.25
  },
  {
    "Molecule": "CN1CCCC(C(=O)O)(c2ccccc2)CC1 (stereo not drawn)",
    "growth inhibition [%]": -17.3
  }
]

Can you look up the measured growth inhibition of O=c1cn[nH]c(=O)[nH]1 for me?
35.4

Can you look up the measured growth inhibition of NC(=O)CCC1CCCCN1 (stereo not drawn) for me?
27.2

###

Test: NCI Yeast Anticancer Drug Screen. Data for the cln2 rad14 strain (AID 165);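 further: 0% = growth equal to vehicle treated cultures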
Conditions: S. cerevisiae cln2 rad14 strain, at 50.0 µM
The panel holds about 79,000 compounds, 15% with a hit somewhere; the sample as a whole holds those more often. The source made the active and inactive calls. Cut-off read from the data, not from the text of the source: active = growth inhibition above about 70%; inactive = the rest.
Returns: one label drawn from t for active, f for inactive

Worked cases, answers included:
[
  {
    "Compound": "CCc1cccc(OC(=O)CCl)c1",
    "Classification": "f"
  },
  {
    "Compound": "COc1cc2c(cc1OC)C1CCN3C(=O)CCC3[N+]1(C)CC2 (stereo not drawn)",
    "Classification": "f"
  },
  {
    "Compound": "CN(C)c1nc(OC2C(C3COC(C)(C)O3)OC3OC(C)(C)OC32)nc(N(C)C)n1 (stereo not drawn)",
    "Classification": "f"
  }
]

For N#Cc1cc2c(cc1C#N)/C(=N\c1cccc(N)n1)N=C2Nc1cccc(N)n1 , what call appears in the results of this test?
f

For CCOc1c(N=Nc2ccc(Cl)cc2Cl)c(C)nn1C(N)=S , what call appears in the results of this test?
f

For COC1(OC)C2(Cl)C3=CCCC=C3C1(Cl)C(Cl)=C2Cl , what call appears in the results of this test?
f

For Cc1cc2c(=O)[nH]c(=S)[nH]c2cn1 , what call appears in the results of this test?
f

For N#Cc1c(N)c(C(=O)O)nn(-c2cccc(C(F)(F)F)c2)c1=O , what call appears in the results of this test?
f
